# protocol.summary: qHTS Assay for Agonists of the Relaxin Receptor RXFP1: V1B Hit Validation;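 further: counter-screen in HEK293 cells expressing V1B rather than RXFP1 for selectivity; nearly all actives have a fitted effect of over 65% in size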;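 on activation: cAMP accumulation with PDE4 inhibitor Ro 20-1724 present during compound exposure; 0% = buffer alone basal and 100% = 29 nM porcine relaxin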
# recorded.conditions: HEK293 V1B cells, cAMP TR-FRET, 30 min; series mostly up to 115 µM
Records with an inconclusive call do not appear. Active and inactive are the calls of the source. The call rests on the fitted dose curve; in most records, active means well fitted activation curve with a large enough effect; inconclusive means small, poorly fitted or top-dose-only effect; inactive means no such curve, though single readings can be large or run the other way.
Your answer must be one of the following: T for active, F for inactive

Field: outcome | Entry: `COc1ccc(Cl)cc1-c1n[nH]c(=S)o1`
T

Field: outcome | Entry: `O=C(CCc1nnc2ccc(N3CCC4(CC3)OCCO4)nn12)NCc1ccc(F)cc1`
T

Field: outcome | Entry: `COc1ccccc1NC(=O)CCCc1nnc2n(C)c(=O)c3sccc3n12`
T

Field: outcome | Entry: `COC(=O)[C@@H]1C[C@@]2(O)[C@H](O)[C@H](O)[C@H](O)C[C@H]2N1Cc1cc(F)ccc1F`
F

Field: outcome | Entry: `COc1ccc(/C=C2/SC(=O)N(CCC(=O)Nc3ccc(C)cc3)C2=O)cc1OC`
F

Field: outcome | Entry: `Nc1c(S(=O)(=O)O)cc(NC(=O)c2ccccc2)c2c1C(=O)c1ccccc1C2=O`
F

Field: outcome | Entry: Cc1ccc(-c2ccc3nnc(SCC(=O)NCC4CCCO4)n3n2)cc1 (configuration not stated)
F

Field: outcome | Entry: `O=S(=O)(c1cccc(-c2cn3cccnc3n2)c1)N1CCOCC1`
T

Field: outcome | Entry: `CCc1cc2c(=O)nc3n(c2s1)Cc1ccccc1/C3=C(/O)c1cccc([N+](=O)[O-])c1`
T

Field: outcome | Entry: `Cc1cccc(NC(=O)c2ccccc2NC(=O)c2ccco2)c1`
F

Field: outcome | Entry: CCOP1(=O)OCC2OC(n3cnc4c(N)ncnc43)C(O)C2O1 (configuration not stated)
T

Field: outcome | Entry: `NS(=O)(=O)c1ccc(CCNC(=O)C2CCN(c3ncnc4c3nc3n4CCCCC3)CC2)cc1`
T

Field: outcome | Entry: `O=C(Nc1ccccc1C(=O)N1CCOCC1)c1ccco1`
F

Field: outcome | Entry: `O=C(Nc1cc(S(=O)(=O)N2CCOCC2)ccc1N1CCOCC1)c1cn2ccccc2n1`
T

Field: outcome | Entry: `CCOC(=O)CCCCC(=O)c1[nH]c(=O)[nH]c1CSc1nnc2c3cc(Br)ccc3n(C)c2n1`
T

Field: outcome | Entry: `N#CCCSc1ncnc2c1oc1ccccc12`
T

Field: outcome | Entry: `Cc1cc(NC(=O)c2ccccc2F)nc2c1c(=O)oc1ccccc12`
T

----------
# protocol.summary: qHTS Assay for Agonists of the Relaxin Receptor RXFP1: V1B Hit Validation;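 further: counter-screen in HEK293 cells expressing V1B rather than RXFP1 for selectivity; nearly all actives have a fitted effect of over 65% in size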;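 on activation: cAMP accumulation with PDE4 inhibitor Ro 20-1724 present during compound exposure; 0% = buffer alone basal and 100% = 29 nM porcine relaxin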
# recorded.conditions: HEK293 V1B cells, cAMP TR-FRET, 30 min; series mostly up to 115 µM
Records with an inconclusive call do not appear. Active and inactive are the calls of the source. Calls come from the whole dose curve; as a rule, active = well fitted activation curve with a large enough effect; inconclusive = small, poorly fitted or top-dose-only effect; inactive = no such curve, though single readings can be large or run the other way.
Your answer must be one of the following: yes (1) (active), no (0) (inactive)

Field: outcome | Entry: `O=[N+]([O-])c1cc2c(c(CSc3nnc4ccccn34)c1)OCOC2`
yes (1)

Field: outcome | Entry: `O=C(Nc1ccccc1C(=O)O)c1ccc(NC(=O)C2CC2)cc1`
no (0)

Field: outcome | Entry: `CN1C(=O)c2ccc(C(=O)Nc3ccc(Br)cn3)cc2C1=O`
yes (1)

Field: outcome | Entry: `COCCNC(=O)NC(=O)COC(=O)C12CC3CC(CC(NC(C)=O)(C3)C1)C2`
no (0)

Field: outcome | Entry: `Cc1nc2scc(C)n2c(=O)c1S(=O)(=O)N1CCN(c2ccccn2)CC1`
yes (1)

Field: outcome | Entry: `CCOC(=O)c1cc2c(=O)n3ccccc3nc2n(Cc2ccco2)c1=NC(=O)c1ccccc1OCC`
yes (1)

Field: outcome | Entry: CCN(CC)CCCN1C=C2C(=O)C(C)(OC(=O)C3CCCC3)C(=O)C=C2C=C1c1ccsc1 (stereo not drawn)
no (0)

Field: outcome | Entry: `O=C(Nc1ccccc1C(=O)NCCc1ccccc1)c1ccco1`
no (0)
